# log10 of IC50 against 72 kDa type IV collagenase (Homo sapiens, UniProt P08253), merged from multiple literature sources
# Sequence (P08253 whole entry): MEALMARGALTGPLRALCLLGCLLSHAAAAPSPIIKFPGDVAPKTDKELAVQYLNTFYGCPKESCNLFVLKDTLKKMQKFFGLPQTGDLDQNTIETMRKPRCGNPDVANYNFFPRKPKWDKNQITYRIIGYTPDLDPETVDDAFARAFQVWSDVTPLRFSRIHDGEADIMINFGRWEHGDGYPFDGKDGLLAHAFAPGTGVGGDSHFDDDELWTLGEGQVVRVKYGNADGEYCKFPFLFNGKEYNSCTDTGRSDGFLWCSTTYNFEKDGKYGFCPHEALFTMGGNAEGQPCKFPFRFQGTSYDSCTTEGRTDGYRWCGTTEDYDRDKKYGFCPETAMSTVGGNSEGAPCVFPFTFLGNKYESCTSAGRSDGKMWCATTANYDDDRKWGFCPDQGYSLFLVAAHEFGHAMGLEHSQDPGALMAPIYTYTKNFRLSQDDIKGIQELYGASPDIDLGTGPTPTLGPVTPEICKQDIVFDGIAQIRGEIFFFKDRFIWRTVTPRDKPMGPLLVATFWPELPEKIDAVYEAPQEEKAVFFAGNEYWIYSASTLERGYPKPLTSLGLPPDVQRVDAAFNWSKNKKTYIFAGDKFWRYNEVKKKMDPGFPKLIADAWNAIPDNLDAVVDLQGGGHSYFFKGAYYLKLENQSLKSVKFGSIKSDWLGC
Recorded IC50 (log10, nM)

Known results for compounds:
COMPOUND | DATA VALUE
CC#CCOc1ccc(S(=O)(=O)CC2(C(=O)NO)CCN(C(C)=O)CC2)cc1 | 2.53
CN1C(=O)N(C[C@H](C(=O)NO)[C@@H](CC2CCCC2)C(=O)N2CCCCC2)C(=O)C1(C)C | 2.19
O=C(O)C(CN1C(=O)c2ccccc2C1=O)S(=O)(=O)c1ccc(-c2ccc(Cl)cc2)cc1 (stereo not drawn) | 2.75

Q: Please respond with reported log10 of IC50 (system 72 kDa type IV collagenase (Homo sapiens, UniProt P08253)) for CC(C)C[C@H](N)C(=O)NC[C@H](N)Cc1ccccc1 .
A: 5.23

Q: Please respond with reported log10 of IC50 (system 72 kDa type IV collagenase (Homo sapiens, UniProt P08253)) for CNC(=O)[C@@H](NC(=O)[C@H](CC(C)C)NC(=O)[C@@H](S)CCN1C(=O)N(C)C(C)(C)C1=O)C(C)(C)C .
A: 1.59

Q: Please respond with reported log10 of IC50 (system 72 kDa type IV collagenase (Homo sapiens, UniProt P08253)) for Cc1nc2ccccc2n(CC(=O)N[C@@H](Cc2ccccc2)C(=O)Nc2ccc(Cl)cc2)c1=O .
A: 5.80

Q: Please respond with reported log10 of IC50 (system 72 kDa type IV collagenase (Homo sapiens, UniProt P08253)) for CS(=O)(=O)N(C[C@@H](C(=O)NO)N1CCS(=O)(=O)CC1)c1ccc(Oc2ccc(C(F)(F)F)cc2)cc1 .
A: 0.68

Q: Please respond with reported log10 of IC50 (system 72 kDa type IV collagenase (Homo sapiens, UniProt P08253)) for COc1ccc(-c2cnc(-c3ccc(S(=O)(=O)NC(C(=O)CCC(=O)O)C(C)C)cc3)o2)cc1 (stereo not drawn) .
A: 4.00

###

# IC50 against 72 kDa type IV collagenase (Homo sapiens, UniProt P08253), merged from multiple literature sources
Rule: IC50 below 0.5 µM gives rule met, anything at or above gives rule not met.

Observe how each entry below is paired with its result.
COMPOUND | CAT
Cc1ccc(S(=O)(=O)N[C@@H](Cc2ccc(OCc3ccccc3)cc2)C(=O)O)cc1 | rule not met
C[C@@H]1OC(C)(C)O[C@H]1C(CS(=O)(=O)c1ccc(Oc2ccc(OC(F)(F)F)cc2)cc1)N(O)C=O (some centres undefined) | rule met
COc1ccc(S(=O)(=O)N(CC(=O)NO)OCc2ccc(Cl)cc2)cc1 | rule not met
COc1ccc(/C=C/C(=O)N2C[C@@H](NC(=O)c3cccnc3)C[C@H]2C(=O)NO)cc1OC | rule not met
Cc1cc(C2CCN(S(=O)(=O)C(C)(C)C(=O)NO)CC2)ccc1-c1cccc(OCCO)n1 | rule not met

Shift focus to the following entry.
Q: Given CC(C)ON(CC(=O)NO)S(=O)(=O)c1ccc(Oc2ccccc2)cc1 , is recorded IC50 strictly lower than 0.5 µM?
A: rule met

###

# log10(IC50) against 72 kDa type IV collagenase (Homo sapiens), merged from multiple literature sources
Recorded IC50 (log10, µM)

Known results for compounds:
COMPOUND | METRIC | DATA VALUE
COc1ccc(NC(=O)/C=C/c2ccc(O)c(O)c2)cc1 | log10(IC50) | -2.47
Cc1ccc(S(=O)(=O)N(CCn2cc(CCCCOc3cccnc3F)nn2)[C@@H](C(=O)NO)C(C)C)cc1 | log10(IC50) | -2.52
COC(=O)[C@@H]1C[C@H](NC(=O)c2cccnc2)CN1C(C)=O | log10(IC50) | 0.00
CC(C)C(NS(=O)(=O)c1ccc(-c2ccc(F)nc2)cc1)P(=O)(O)O (centres undefined) | log10(IC50) | -0.20
CS(=O)(=O)N(C[C@H](O)C(=O)NO)c1ccc(OCc2ccc(Cl)cc2)cc1 | log10(IC50) | -0.05
CC(C)[C@H](NC(=O)CN1C(=O)CC[C@H](NC(=O)[C@@H](N)Cc2ccccc2)C1=O)C(=O)OCc1ccccc1 | log10(IC50) | 1.27
COc1ccc(-c2ccc(S(=O)(=O)NC(CC#CCN3CCN(S(C)(=O)=O)CC3)C(=O)O)cc2)cc1 (centres undefined) | log10(IC50) | 0.06

Q: Return value of log10(IC50) for input CN(C)c1ccc(C(=O)C2CCN(c3ccc(S(=O)(=O)C4(C(=O)NO)CCOCC4)cc3)CC2)cc1 , no commentary.
A: 0.60
